Experiment: Cmax in Sprague-Dawley rat at 9.86 mg/kg, po by UPLC-MS/MS analysis
Assay type: ADME, organism-based
Conditions: in vivo
ENDPOINT LABEL: Cmax (ng/mL)
Give the value in ng/mL but do not write ng/mL after it.

[ask] Which Cmax value is on record for C[N+]1(C)CCC[C@H]1C(=O)[O-] ?
[reply] 673

----------
Experiment: Half life in Wistar rat at 166.3 mg/kg, po
Format: ADME, organism-based
Details: in vivo
ENDPOINT LABEL: half-life

[ask] So what does the record say about half-life for C[N+]1(C)CCC[C@H]1C(=O)[O-] ?
[reply] 1.64 h
